# Tested on: KM12 colon
# Experimental details: NCI-60 one-dose screen, 48 h (100 = growth as untreated, 0 = no growth, -100 = all killed)
# Particulars: 10 µM unless noted
This is part of a sample that, as a whole, favours compounds with a hit. Of some 83,000 tested, about 20% had one in any assay.
Assign class by growth: not lower than 90% means fulfilled; lower than 90% means not fulfilled.

Inquiry: Would you say `N=C1C(c2nc3ccccc3s2)=C(O)CN1c1cc(Cl)cc(Cl)c1` shows growth at minimum 90%?
Reply text: not fulfilled

Inquiry: Reported growth reaches at least 90% for `C/C(=N\NC(=O)CSc1nc2ccccc2c(=O)n1Cc1ccc(S(N)(=O)=O)cc1)c1ccc(F)cc1` ?
Reply text: fulfilled

Inquiry: Is growth for `CC1(C)CC[C@]23CC[C@]4(C)[C@H](CC[C@@H]5[C@@]6(C)CCCNC(C)(C)[C@@H]6CC[C@]54C)[C@H]2[C@H]1OC3` at or above 90%?
Reply text: not fulfilled

Inquiry: Could you verify whether the entry `COc1ccc(C(=O)c2cc(C)c(OC)c(C)c2)c(OC)c1OC(=O)C(Cl)Cl` shows growth of no less than 90%?
Reply text: not fulfilled

Inquiry: Is growth for `COc1cc(C2=C(c3cn(C)c4ccccc34)COC2=O)cc(OC)c1OC` at or above 90%?
Reply text: not fulfilled

Inquiry: Check if growth >= 90% (inclusive). Item: `CN1CCN(CCNc2nccc(-c3c(-c4cccc(O)c4)nc4sccn34)n2)S1(=O)=O`
Reply text: not fulfilled

Inquiry: Given CCCCCCCCO/N=C\c1c2c(O)c3c(O)c(C)c4c(c3c1O)C(=O)C(C)(O/C=C\C(OC)C(C)C(OC(C)=O)C(C)C(O)C(C)C(O)C(C)/C=C\C=C(\C)C(=O)N2)O4 (centres undefined) , state whether its growth is at least 90%.
Reply text: not fulfilled

* * *

# System: OVCAR-8 ovarian
# Experimental details: NCI-60 one-dose screen, 48 h (100 = growth as untreated, 0 = no growth, -100 = all killed)
# Particulars: 10 µM unless noted
About 83,000 compounds went through this panel and 20% of them were active in at least one assay; those are over-represented in the sample as a whole.
Give growth for every item shown.
One number for each entry, in %.

Use these answered entries as a reference point.
Molecule	Tested target	Measure unit	growth
CCOC(=O)Nc1ccc(-c2ccc3c(c2)NC(=O)/C3=C\c2ccc[nH]2)cc1	OVCAR-8 ovarian	%	105
O=C(/C=C/c1ccc[nH]1)c1ccc(-n2ccc(C(F)(F)F)n2)c(F)c1	OVCAR-8 ovarian	%	95.6
Cc1ccc(-c2[nH][nH]c(=O)c2-c2nc3ccccc3s2)cc1	OVCAR-8 ovarian	%	105
N#CC(C#N)=Cc1cc2ccccc2nc1Oc1ccc(C(F)(F)F)cc1	OVCAR-8 ovarian	%	92.5
CC1(C)c2[nH]c3ccccc3c2C[C@]2(C)[C@H]3C(=O)C=C4[C@@H]5C[C@@](C)(C(N)=O)CC[C@]5(C)CC[C@@]4(C)[C@]3(C)CC[C@@H]12	OVCAR-8 ovarian	%	75.1
CCOC(=O)c1cc(C(=O)c2ccc(OC)c(OC)c2)n2c1ccc1ccccc12	OVCAR-8 ovarian	%	94.7
Cc1cc(Cl)nc(N(CCNc2ccnc3cc(Cl)ccc23)Cc2ccccn2)n1	OVCAR-8 ovarian	%	39.3
COc1cccc(-c2ccc3c(c2)NC(=O)/C3=C\c2ccc[nH]2)c1	OVCAR-8 ovarian	%	74.2

Give measured growth for every item shown.
1. COc1cc(-c2csc(NC(=O)c3cc(F)cc(C(F)(F)F)c3)n2)cc(OC)c1OC
2. C=C(C)[C@@H]1CC[C@]2(C(=O)N3CCN(C)CC3)CC[C@]3(C)[C@H](CC[C@@H]4[C@@]5(C)C/C(=C/c6cccnc6)C(=O)C(C)(C)[C@@H]5CC[C@]43C)[C@@H]12
3. COc1ccc(/C=C/C(=O)Nc2cc(/C=C\c3cc(OC)c(OC)c(OC)c3)cc(OC)c2OC)cc1OC
4. N#Cc1cccc(-c2ccc3c(c2)NC(=O)/C3=C\c2ccc[nH]2)c1

Reply text:
1. 37.7
2. 56.2
3. 34.2
4. 85.9

Batch lookup, growth per entry.
1. C=C1C(=O)O[C@H]2[C@H]1CC/C(COC(=O)NCc1c[nH]c3ccc(F)cc13)=C\CC[C@@]1(C)O[C@@H]21
2. O=C(CCN1CCCC1)Nc1ccc2c(Nc3ccc(Br)cc3)c3ccccc3nc2c1
3. N#CC1C(C#N)C2c3ccccc3C=CN2C1C(=O)c1ccc(Br)cc1 (stereo not drawn)
4. O=C1Nc2ccccc2/C1=C\c1c(-c2ccc(F)cc2)nc2ccccn12
5. O=C(Nc1ccccc1C(=O)N/N=C(\c1ccccc1)c1ccccn1)c1ccc(F)cc1
6. CCN1C(=O)/C(=C/C(=O)OC)S/C1=N\NC(=O)c1cc2ccc1/C=C\c1ccc(cc1)/C=C\2

Reply text:
1. 0.654
2. 5.94
3. 94.9
4. 86.8
5. 17.1
6. 92.6
